target: UniProt Q01959; experiment: Inhibition of radioligand [125I]RTI-55 binding to human Dopamine transporter in clonal cells; assay type: cell-based
Sequence (Q01959 whole entry): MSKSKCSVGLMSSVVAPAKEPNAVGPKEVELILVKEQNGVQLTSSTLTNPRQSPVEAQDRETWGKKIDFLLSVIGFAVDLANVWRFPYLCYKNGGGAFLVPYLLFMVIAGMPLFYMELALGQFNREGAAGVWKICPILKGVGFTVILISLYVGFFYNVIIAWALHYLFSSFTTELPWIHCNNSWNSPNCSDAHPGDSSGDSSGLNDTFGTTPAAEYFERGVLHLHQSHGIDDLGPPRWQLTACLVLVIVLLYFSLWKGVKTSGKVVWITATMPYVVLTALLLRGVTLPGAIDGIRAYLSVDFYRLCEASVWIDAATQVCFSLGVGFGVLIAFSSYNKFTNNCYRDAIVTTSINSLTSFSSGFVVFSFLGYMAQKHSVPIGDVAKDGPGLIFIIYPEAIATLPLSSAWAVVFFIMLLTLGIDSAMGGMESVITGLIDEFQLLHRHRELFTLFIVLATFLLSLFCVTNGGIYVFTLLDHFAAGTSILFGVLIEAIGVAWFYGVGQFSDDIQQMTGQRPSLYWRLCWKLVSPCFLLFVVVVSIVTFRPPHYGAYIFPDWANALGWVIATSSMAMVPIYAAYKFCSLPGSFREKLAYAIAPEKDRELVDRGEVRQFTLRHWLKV
The entries below come with measured pKD values attached.
In your answer, state the number alone without any accompanying words.

| compound | value.measured |
| --- | --- |
| O=C(/C=C/c1c(Cl)cccc1Cl)N1CCN(CCOC(c2ccc(F)cc2)c2ccc(F)cc2)CC1 | 5.82 |

Look up and report measured pKD for this entry: Fc1ccc(/C=C/CN2CCN(CCOC(c3ccc(F)cc3)c3ccc(F)cc3)CC2)cc1 8.41

Look up and report measured pKD for this entry: Fc1ccc(C(OCCN2CCN(C/C=C/c3ccccc3)CC2)c2ccc(F)cc2)cc1 (stereo in doubt; 15) 8.11

Look up and report measured pKD for this entry: Fc1ccc(C(OCCN2CCN(CCCc3ccc(Cl)cc3)CC2)c2ccc(F)cc2)cc1 8.09

Look up and report measured pKD for this entry: COc1ccc(OC)c(/C=C/C(=O)N2CCN(CCOC(c3ccc(F)cc3)c3ccc(F)cc3)CC2)c1 6.25

Look up and report measured pKD for this entry: Fc1ccc(CN(CCN2CCN(CCCc3ccccc3)CC2)c2ccc(F)cc2)cc1 7.28

Look up and report measured pKD for this entry: Cc1ccc(C(OCCN2CCN(C/C=C/c3ccccc3)CC2)c2ccccc2)cc1 (stereo not drawn) 6.95

Look up and report measured pKD for this entry: Fc1ccc(C(OCCN2CCN(C/C=C/c3ccccc3)CC2)c2ccc(Cl)cc2Cl)cc1 (stereo not drawn) 7.18
